Measured MOR Antag (%) of individual entries
- target: MOR (Homo sapiens, UniProt P35372)
- Sequence (P35372 whole entry): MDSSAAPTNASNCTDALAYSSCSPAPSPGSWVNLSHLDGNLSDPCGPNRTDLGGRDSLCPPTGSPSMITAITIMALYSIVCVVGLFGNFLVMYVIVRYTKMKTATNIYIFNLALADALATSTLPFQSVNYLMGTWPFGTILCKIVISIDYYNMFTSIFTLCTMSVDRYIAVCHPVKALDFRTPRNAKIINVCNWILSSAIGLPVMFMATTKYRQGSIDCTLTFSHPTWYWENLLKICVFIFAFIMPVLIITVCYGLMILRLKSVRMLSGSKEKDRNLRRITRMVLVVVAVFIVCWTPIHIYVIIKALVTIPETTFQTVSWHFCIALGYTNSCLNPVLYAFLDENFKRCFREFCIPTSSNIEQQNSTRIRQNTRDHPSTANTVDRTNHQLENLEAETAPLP
- assay name: β-arrestin-recruitment TANGO assay at MOR
- Assay type: cell-based
- assay setup: 10 μM; vs naloxone 121 = 100% inhibition; agonist 99 (300 nM)
Give the value, in units of %, as a plain number.

Some solved cases for reference:
[
  {
    "compound": "CCOC(=O)[C@@]12C[C@@H]1[C@@H](n1cnc3c(NC)nc(C#Cc4ccc(Br)s4)nc31)[C@H](O)[C@@H]2O [compound 25]",
    "outcome measure": "MOR Antag (%)",
    "unit annotation": "%",
    "endpoint result": 22.6
  },
  {
    "compound": "CCOC(=O)[C@@]12C[C@@H]1[C@@H](n1ccc3c(NC)nc(C#Cc4ccc(Cl)s4)nc31)[C@H](O)[C@@H]2O [compound 28]",
    "outcome measure": "MOR Antag (%)",
    "unit annotation": "%",
    "endpoint result": 96.4
  },
  {
    "compound": "CCOC(=O)[C@@]12C[C@@H]1[C@@H](n1ccc3c(NC)nc(C#Cc4ccc(Br)s4)nc31)[C@H](O)[C@@H]2O [compound 29]",
    "outcome measure": "MOR Antag (%)",
    "unit annotation": "%",
    "endpoint result": 96.9
  }
]

Documented MOR Antag (%) of CNC(=O)[C@@]12C[C@@H]1[C@@H](n1cnc3c(NCc4cccc(Cl)c4)nc(C#Cc4ccc(F)c(F)c4)nc31)[C@H](O)[C@@H]2O [compound 4] : 18.8

Documented MOR Antag (%) of CNc1nc(C#Cc2ccc(Cl)s2)nc2c1ncn2[C@H]1[C@H](O)[C@H](O)[C@]2(C(=O)OCc3ccccc3)C[C@H]12 [compound 35] : 82.1

----------
- target: UniProtKB P0DMS8
- Sequence (P0DMS8 1-318): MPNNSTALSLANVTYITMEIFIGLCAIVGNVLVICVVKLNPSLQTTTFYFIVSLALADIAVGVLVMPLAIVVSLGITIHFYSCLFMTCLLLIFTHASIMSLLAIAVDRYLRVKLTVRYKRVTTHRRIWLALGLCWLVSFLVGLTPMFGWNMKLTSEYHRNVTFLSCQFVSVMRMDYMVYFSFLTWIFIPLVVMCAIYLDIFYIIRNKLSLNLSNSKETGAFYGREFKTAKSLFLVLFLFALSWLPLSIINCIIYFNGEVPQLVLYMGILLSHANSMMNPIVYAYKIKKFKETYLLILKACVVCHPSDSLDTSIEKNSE
- assay name: A3AR binding
Measured log10 of Ki of individual entries
// stored as log10 of Ki expressed in nM

[
  {
    "structure notation": "CCOC(=O)[C@@]12C[C@@H]1[C@@H](n1ccc3c(NCCc4ccccc4)nc(C#Cc4ccccc4)nc31)[C@H](O)[C@@H]2O",
    "endpoint result": 2.68
  }
]

Measured log10 of Ki for this entry `CCOC(=O)[C@@]12C[C@@H]1[C@@H](n1ccc3c(NC)nc(I)nc31)[C@@H]1OC(C)(C)O[C@@H]12` on UniProtKB P0DMS8: 3.61

----------
- target: rat kidney TSPO (Rattus norvegicus, UniProt P16257)
- Sequence (P16257 whole entry): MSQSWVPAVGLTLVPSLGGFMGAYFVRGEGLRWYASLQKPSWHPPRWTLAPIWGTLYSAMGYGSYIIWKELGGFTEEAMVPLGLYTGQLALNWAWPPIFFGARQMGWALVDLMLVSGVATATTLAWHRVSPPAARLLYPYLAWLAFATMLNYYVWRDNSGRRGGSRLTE
Response field class: enum, chosen by comparing Ki against low group (below 1 µM), middle group (1 µM to below 2 µM), high group (2 µM or more)

Here's what some known entries look like.
[
  {
    "structure notation": "CNC(=O)[C@@]12C[C@@H]1[C@@H](n1cnc3c(NCCC(F)(F)F)nc(C#Cc4ccc(Cl)s4)nc31)[C@H](O)[C@@H]2O",
    "group": "middle group"
  },
  {
    "structure notation": "CCOC(=O)[C@@]12C[C@@H]1[C@@H](n1cnc3c(NC)nc(C#Cc4ccc(Br)s4)nc31)[C@H](O)[C@@H]2O",
    "group": "middle group"
  },
  {
    "structure notation": "O[C@@H]1[C@H](O)[C@@H]2C[C@@H]2[C@H]1n1ccc2c(NCCc3ccccc3)nc(C#Cc3ccccc3)nc21",
    "group": "high group"
  },
  {
    "structure notation": "CCOC(=O)[C@@]12C[C@@H]1[C@@H](n1ccc3c(NC)nc(C#Cc4ccc(Br)s4)nc31)[C@H](O)[C@@H]2O",
    "group": "low group"
  }
]

Class (by measured Ki) for `CCOC(=O)[C@@]12C[C@@H]1[C@@H](n1ccc3c(NCCc4ccccc4)nc(C#Cc4ccccc4)nc31)[C@@H]1OC(C)(C)O[C@@H]12`
high group

Class (by measured Ki) for `O[C@@H]1[C@H](O)[C@@H]2C[C@@H]2[C@H]1n1cnc2c(NCCc3ccccc3)nc(C#Cc3ccccc3Cl)nc21`
low group

Class (by measured Ki) for `CNC(=O)[C@@]12C[C@@H]1[C@@H](n1cnc3c(NCCCO)nc(C#Cc4ccc(Cl)s4)nc31)[C@H](O)[C@@H]2O`
high group

Class (by measured Ki) for `CCOC(=O)[C@@]12C[C@@H]1[C@@H](n1ccc3c(NCC4CC4)nc(C#Cc4ccccc4)nc31)[C@H](O)[C@@H]2O`
high group

Class (by measured Ki) for `CCOC(=O)[C@@]12C[C@@H]1[C@@H](n1cnc3c(NC)cc(C#Cc4ccc(Cl)s4)nc31)[C@H](O)[C@@H]2O`
high group

Class (by measured Ki) for `O[C@@H]1[C@H](O)[C@@H]2C[C@@H]2[C@H]1n1cnc2c(NCc3cccc(Cl)c3)nc(C#Cc3ccccc3)nc21`
middle group

Class (by measured Ki) for `CCCCOC(=O)[C@@]12C[C@@H]1[C@@H](n1cnc3c(NC)nc(C#Cc4ccc(Cl)s4)nc31)[C@H](O)[C@@H]2O`
high group

Class (by measured Ki) for `CCOC(=O)[C@@]12C[C@@H]1[C@@H](n1cnc3c(NC)nc(C#Cc4ccc(Cl)s4)nc31)[C@H](O)[C@@H]2O`
middle group

----------
- target: hDAT (Homo sapiens, UniProt Q01959)
- Sequence (Q01959 whole entry): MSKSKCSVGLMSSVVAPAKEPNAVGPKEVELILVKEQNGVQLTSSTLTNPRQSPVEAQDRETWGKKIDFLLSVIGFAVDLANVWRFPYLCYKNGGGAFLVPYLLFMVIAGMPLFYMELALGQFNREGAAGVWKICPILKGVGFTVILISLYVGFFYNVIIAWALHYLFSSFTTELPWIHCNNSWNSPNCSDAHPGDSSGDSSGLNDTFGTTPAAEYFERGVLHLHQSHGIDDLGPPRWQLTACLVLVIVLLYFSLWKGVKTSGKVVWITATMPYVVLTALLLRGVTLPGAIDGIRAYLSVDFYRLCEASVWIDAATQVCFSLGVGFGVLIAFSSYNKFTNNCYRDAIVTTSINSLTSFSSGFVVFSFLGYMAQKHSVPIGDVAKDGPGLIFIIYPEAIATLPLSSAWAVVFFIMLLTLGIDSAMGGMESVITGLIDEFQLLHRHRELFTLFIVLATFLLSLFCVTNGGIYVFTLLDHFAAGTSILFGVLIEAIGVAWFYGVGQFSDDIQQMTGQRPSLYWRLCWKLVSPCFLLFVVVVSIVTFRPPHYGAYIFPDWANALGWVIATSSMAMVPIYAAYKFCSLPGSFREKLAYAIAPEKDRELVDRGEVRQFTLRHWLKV
- assay name: Radioligand binding at DAT
- assay setup: 10 μM; [3H]WIN35428; negative = enhanced radioligand binding

[
  {
    "structure notation": "CCOC(=O)[C@@]12C[C@@H]1[C@@H](n1ccc3c(NC)nc(I)nc31)[C@H](O)[C@@H]2O",
    "DAT, inhibition, % of control at 10 μM": "<10%"
  },
  {
    "structure notation": "CCOC(=O)[C@@]12C[C@@H]1[C@@H](n1ccc3c(NC)nc(C#Cc4ccc(Cl)s4)nc31)[C@@H]1OC(C)(C)O[C@@H]12",
    "DAT, inhibition, % of control at 10 μM": "–20%"
  },
  {
    "structure notation": "CNc1nc(C#Cc2ccc(Cl)s2)nc2c1ncn2[C@H]1[C@H](O)[C@H](O)[C@]2(C(=O)OCCC3CCCCC3)C[C@H]12",
    "DAT, inhibition, % of control at 10 μM": "<20%"
  },
  {
    "structure notation": "CCCNc1nc(C#Cc2ccc(Cl)s2)nc2c1ncn2[C@H]1[C@H](O)[C@H](O)[C@]2(C(=O)NC)C[C@H]12",
    "DAT, inhibition, % of control at 10 μM": "–159%"
  }
]

----------
- target: DOR (Homo sapiens, UniProt P41143)
- Sequence (P41143 whole entry): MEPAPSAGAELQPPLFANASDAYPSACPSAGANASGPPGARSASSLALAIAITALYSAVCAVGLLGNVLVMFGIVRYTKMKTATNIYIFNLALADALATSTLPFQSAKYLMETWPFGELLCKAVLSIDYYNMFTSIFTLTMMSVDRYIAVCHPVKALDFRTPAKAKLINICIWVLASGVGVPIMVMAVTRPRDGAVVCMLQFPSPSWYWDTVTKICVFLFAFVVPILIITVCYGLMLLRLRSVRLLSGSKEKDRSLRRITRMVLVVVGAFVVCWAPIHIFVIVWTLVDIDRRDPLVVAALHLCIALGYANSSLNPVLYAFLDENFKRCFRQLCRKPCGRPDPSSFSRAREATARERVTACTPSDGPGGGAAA
- assay name: β-arrestin-recruitment TANGO assay at DOR
- Type: cell-based
- assay setup: 10 μM; vs naloxone 121 = 100% inhibition
outcome measure: DOR Antag (%)
Give the value, in units of %, as a plain number.

Some solved cases for reference:
[
  {
    "structure notation": "CNc1nc(C#Cc2ccc(Cl)s2)nc2c1ncn2[C@H]1[C@H](O)[C@H](O)[C@]2(C(=O)OCc3ccccc3)C[C@H]12",
    "DOR Antag (%)": 14.1
  },
  {
    "structure notation": "CCCCC(=O)[C@@]12C[C@@H]1[C@@H](n1ccc3c(NC)nc(C#Cc4ccc(Cl)s4)nc31)[C@H](O)[C@@H]2O",
    "DOR Antag (%)": 20.3
  }
]

Documented DOR Antag (%) of `CCOC(=O)[C@@]12C[C@@H]1[C@@H](n1cnc3c(NC)nc(C#Cc4ccc(Cl)s4)nc31)[C@H](O)[C@@H]2O` : 35.3

----------
- target: mA3AR (Mus musculus, UniProt Q61618)
- Sequence (Q61618 1-319): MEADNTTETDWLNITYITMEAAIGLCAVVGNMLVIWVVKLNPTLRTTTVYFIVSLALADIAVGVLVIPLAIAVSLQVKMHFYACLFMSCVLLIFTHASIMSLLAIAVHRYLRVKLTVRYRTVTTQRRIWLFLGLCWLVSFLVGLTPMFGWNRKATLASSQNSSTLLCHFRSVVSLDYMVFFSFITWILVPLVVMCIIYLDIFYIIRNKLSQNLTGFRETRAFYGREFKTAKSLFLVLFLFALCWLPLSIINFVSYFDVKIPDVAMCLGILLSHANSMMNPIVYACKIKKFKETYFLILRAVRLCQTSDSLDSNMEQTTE
Labelling field: enter rule met if recorded Ki is less than 300 nM. Enter rule not met if it equals or exceeds that cut-off.

Here's what some known entries look like.
[
  {
    "structure notation": "CNC(=O)[C@@]12C[C@@H]1[C@@H](n1cnc3c(NCCC(F)(F)F)nc(C#Cc4ccc(Cl)s4)nc31)[C@H](O)[C@@H]2O",
    "group": "rule met"
  },
  {
    "structure notation": "CCOC(=O)[C@@]12C[C@@H]1[C@@H](n1cnc3c(NC)cc(C#Cc4ccc(Cl)s4)nc31)[C@H](O)[C@@H]2O",
    "group": "rule not met"
  },
  {
    "structure notation": "CNC(=O)[C@@]12C[C@@H]1[C@@H](n1cnc3c(NC)nc(C#Cc4ccccc4Cl)nc31)[C@H](O)[C@@H]2O",
    "group": "rule met"
  },
  {
    "structure notation": "CNc1nc(C#Cc2ccc(Cl)s2)nc2c1ncn2[C@H]1[C@H](O)[C@H](O)[C@]2(C(=O)OCc3ccccc3)C[C@H]12",
    "group": "rule not met"
  }
]

Let us examine a further case.
Lab log: compare recorded Ki with 300 nM; is it strictly lower for `CNC(=O)[C@@]12C[C@@H]1[C@@H](n1cnc3c(NCCCO)nc(C#Cc4ccc(Cl)s4)nc31)[C@H](O)[C@@H]2O` ?
rule met
